Measured melting point, listed per entry.

Field: example entries. Status: answers known.
COC(=O)CCC(=O)Nc1cccc(OCc2cc3ccccc3o2)c1; 112 to 113 °C
CCOC(=O)c1cnn(-c2ccc(O)c(C#N)c2)c1; 233 to 234 °C
CC(=O)NCc1nc2c(N)nc(C)c(C)c2n1CC(C)C; 162 to 164 °C
Cc1nc(N2CCc3ccccc3CC2)c(C#N)c(=O)n1O; 168 to 172 °C

Recorded melting point for CC1=C(c2nc(C)no2)C(c2cccc(Cl)c2Cl)C(c2nc(C)no2)=C(C)N1 , please?
227 to 229 °C

----------
Quick reference for melting point among some compounds

Cc1nc2c([nH]1)C(=O)N1CCN=C1N2Cc1ccc(Cl)cc1; 312 to 314 °C
CCCCCCCCNC(=O)/C=C\SC(=O)CC; 68 to 70 °C
O=C1CC2(CCO1)c1ccccc1Oc1ccccc12; 156 to 159 °C
CC(C)N1C(=O)[C@@H](CC(=O)NCC#N)O[C@H](c2ccccc2Cl)c2cc(Cl)ccc21 (relative stereo); 216 to 217 °C

Now examine the next entry.
Given the compound Cc1oc(-c2ccccc2)nc1CCC(=O)c1ccc(CCC2OCCO2)cc1 , what is its reported melting point?
89 to 90 °C
